- experimental-target: T1, Cynomolgus macaques TSLP recombinant protein (Cynomolgus macaques, UniProt Q969D9 29-159 (human entry), limits assumed, biotinylated in the blocking assays (sites not given))
- T1 construct: also called cyTSLP; biotinylated Cynomolgus macaques TSLP protein
- T1 chain: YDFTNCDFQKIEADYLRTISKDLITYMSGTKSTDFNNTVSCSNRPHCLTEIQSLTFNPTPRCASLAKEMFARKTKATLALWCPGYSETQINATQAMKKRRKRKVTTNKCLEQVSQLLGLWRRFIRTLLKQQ
- assay-name: ELISA on coated cynomolgus TSLP;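 note: Read-out was TMB colorimetric signal measured as absorbance at 450 nm after 10 min development at 37 °C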
attribute-measured: binding result

# binder, attribute-measured, measured-value
measured = [
    ("Ab6 (antibody, V domains shown, Humanized; also called h39G5VHv6/h39G5VKv1) VH: QVQLVQSGAEVKKPGSSVKVSCKASGYTFTDYWMHWVRQAPGQGLEWMGTIDNSDSDTSLNQKFQGRVTLTVDTSTSTAYMELSSLRSEDTAVYYCARSLDGYYDYWGQGTLVTVSS VL: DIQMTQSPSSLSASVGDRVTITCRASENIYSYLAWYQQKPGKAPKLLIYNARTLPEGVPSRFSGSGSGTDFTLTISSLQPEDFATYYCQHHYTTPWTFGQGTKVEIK", "binding result", "binds"),
    ("Ab12 (antibody, V domains shown, Humanized; also called h39G5VHv12/h39G5VKv1) VH: QVQLVQSGAEVKKPGSSVKVSCKASGYTFTDYWMHWVRQAPGQGLEWMGTIDNSDSDTSLNQKFQGRVTITADESSSTAYMELSSLRSEDTAVYYCARSLDGYYDYWGQGTLVTVSS VL: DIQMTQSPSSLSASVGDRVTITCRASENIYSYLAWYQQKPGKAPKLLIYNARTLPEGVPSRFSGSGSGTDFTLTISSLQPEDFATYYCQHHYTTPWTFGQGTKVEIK", "binding result", "binds"),
]

Taken from patent US20230029835A1.
